Test system: 843126-344-R-J1-PDC complex spheroid viability;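 further: spheroids exposed to drugs for seven days before readout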
Assay: Anticancer human tumor 843126-344-R-J1-PDC patient-derived melanoma cell line growth inhibition [POLQ]
Settings: second compound 0.0316 µM; first compound 0.1 µM; hits give low values
Parameter: viability, T/C. Scope: all listed entries.

| compound | assayed.target | viability, T/C (%) |
| --- | --- | --- |
| Cn1ncnc1[C@H]1c2n[nH]c(=O)c3cc(F)cc(c23)N[C@@H]1c1ccc(F)cc1 + COC1C(OC(N)=O)C(O)C(Oc2ccc3c(O)c(NC(=O)c4ccc(O)c(CC=C(C)C)c4)c(=O)oc3c2C)OC1(C)C | 843126-344-R-J1-PDC complex spheroid viability | 76.5 |
| COc1cccc2c1C(=O)c1c(O)c3c(c(O)c1C2=O)CC(O)(C(=O)CO)CC3OC1CC(N)C(O)C(C)O1 (stereo not given) + COC1C(OC(N)=O)C(O)C(Oc2ccc3c(O)c(NC(=O)c4ccc(O)c(CC=C(C)C)c4)c(=O)oc3c2C)OC1(C)C | 843126-344-R-J1-PDC complex spheroid viability | 81.3 |
| O=C(c1cc(Cc2n[nH]c(=O)c3ccccc23)ccc1F)N1CCN(C(=O)C2CC2)CC1 + Nc1ccc(C#CCN(C(=O)Cc2ncc(C(F)(F)F)cc2C(F)(F)F)c2ccc(F)cc2)nn1 | 843126-344-R-J1-PDC complex spheroid viability | 73.7 |
| CC(C)n1c(=O)n(C)c2cnc3cc(F)c(-c4ccc(OCCCN5CCCCC5)nc4)cc3c21 + Cc1cccc(N(C)C(=O)C2C(O)CCN2c2nc(C)cc(C(F)(F)F)c2C#N)c1 | 843126-344-R-J1-PDC complex spheroid viability | 87.7 |
| CC1COCCN1c1cc(C2(S(C)(=N)=O)CC2)nc(-c2ccnc3[nH]ccc23)n1 (stereo not given) + Nc1ccc(C#CCN(C(=O)Cc2ncc(C(F)(F)F)cc2C(F)(F)F)c2ccc(F)cc2)nn1 | 843126-344-R-J1-PDC complex spheroid viability | 84.8 |
| CC1COCCN1c1cc(-c2ccnn2C)c2ccnc(-c3ccn[nH]3)c2n1 (stereo not given) + Cc1cccc(N(C)C(=O)C2C(O)CCN2c2nc(C)cc(C(F)(F)F)c2C#N)c1 | 843126-344-R-J1-PDC complex spheroid viability | 77.7 |
| CC1COCCN1c1cc(-c2ccnn2C)c2ccnc(-c3ccn[nH]3)c2n1 (stereo not given) + COC1C(OC(N)=O)C(O)C(Oc2ccc3c(O)c(NC(=O)c4ccc(O)c(CC=C(C)C)c4)c(=O)oc3c2C)OC1(C)C | 843126-344-R-J1-PDC complex spheroid viability | 69.8 |
| Nc1ccn(C2OC(CO)C(O)C2(F)F)c(=O)n1 (stereo not given) + Cc1cccc(N(C)C(=O)C2C(O)CCN2c2nc(C)cc(C(F)(F)F)c2C#N)c1 | 843126-344-R-J1-PDC complex spheroid viability | 50.2 |
| COc1ccc([C@@H](O)c2cc(-c3ncnc4cc(N5CCOCC5)ccc34)c(F)cc2Cl)nn1 + Nc1ccc(C#CCN(C(=O)Cc2ncc(C(F)(F)F)cc2C(F)(F)F)c2ccc(F)cc2)nn1 | 843126-344-R-J1-PDC complex spheroid viability | 94.9 |
| CNCc1ccc(-c2[nH]c3cc(F)cc4c3c2CCNC4=O)cc1 + COC1C(OC(N)=O)C(O)C(Oc2ccc3c(O)c(NC(=O)c4ccc(O)c(CC=C(C)C)c4)c(=O)oc3c2C)OC1(C)C | 843126-344-R-J1-PDC complex spheroid viability | 94 |
| C=CCn1c(=O)c2cnc(Nc3ccc(N4CCN(C)CC4)cc3)nc2n1-c1cccc(C(C)(C)O)n1 + Nc1ccc(C#CCN(C(=O)Cc2ncc(C(F)(F)F)cc2C(F)(F)F)c2ccc(F)cc2)nn1 | 843126-344-R-J1-PDC complex spheroid viability | 110 |
| C=CCn1c(=O)c2cnc(Nc3ccc(N4CCN(C)CC4)cc3)nc2n1-c1cccc(C(C)(C)O)n1 + COC1C(OC(N)=O)C(O)C(Oc2ccc3c(O)c(NC(=O)c4ccc(O)c(CC=C(C)C)c4)c(=O)oc3c2C)OC1(C)C | 843126-344-R-J1-PDC complex spheroid viability | 81.5 |
| Nc1ccn(C2OC(CO)C(O)C2(F)F)c(=O)n1 (stereo not given) + COC1C(OC(N)=O)C(O)C(Oc2ccc3c(O)c(NC(=O)c4ccc(O)c(CC=C(C)C)c4)c(=O)oc3c2C)OC1(C)C | 843126-344-R-J1-PDC complex spheroid viability | 34.9 |
| COc1cc2cc(C(=O)CCC(=O)O)sc2cc1OC + Cc1cccc(N(C)C(=O)C2C(O)CCN2c2nc(C)cc(C(F)(F)F)c2C#N)c1 | 843126-344-R-J1-PDC complex spheroid viability | 83.5 |
| C#Cc1c(F)ccc2cc(O)cc(-c3ncc4c(N5CC6CCC(C5)N6)nc(OCC56CCCN5CC(F)C6)nc4c3F)c12 (stereo not given) + Nc1ccc(C#CCN(C(=O)Cc2ncc(C(F)(F)F)cc2C(F)(F)F)c2ccc(F)cc2)nn1 | 843126-344-R-J1-PDC complex spheroid viability | 95.1 |
| O=C(Nc1ccc(O)c(NS(=O)(=O)c2ccc(F)cc2)c1)c1ccc(-c2ccccc2)cc1 + Nc1ccc(C#CCN(C(=O)Cc2ncc(C(F)(F)F)cc2C(F)(F)F)c2ccc(F)cc2)nn1 | 843126-344-R-J1-PDC complex spheroid viability | 94.9 |
| CCCS(=O)(=O)Nc1ccc(F)c(C(=O)c2c[nH]c3ncc(-c4ccc(Cl)cc4)cc23)c1F + COC1C(OC(N)=O)C(O)C(Oc2ccc3c(O)c(NC(=O)c4ccc(O)c(CC=C(C)C)c4)c(=O)oc3c2C)OC1(C)C | 843126-344-R-J1-PDC complex spheroid viability | 87.5 |
| CCc1c2c(nc3ccc(O)cc13)-c1cc3c(c(=O)n1C2)COC(=O)[C@]3(O)CC + Nc1ccc(C#CCN(C(=O)Cc2ncc(C(F)(F)F)cc2C(F)(F)F)c2ccc(F)cc2)nn1 | 843126-344-R-J1-PDC complex spheroid viability | 64.7 |
| COc1cc(C2c3cc4c(cc3C(OC3OC5COC(C)OC5C(O)C3O)C3COC(=O)C23)OCO4)cc(OC)c1O (stereo not given) + COC1C(OC(N)=O)C(O)C(Oc2ccc3c(O)c(NC(=O)c4ccc(O)c(CC=C(C)C)c4)c(=O)oc3c2C)OC1(C)C | 843126-344-R-J1-PDC complex spheroid viability | 89.4 |
| CC1COCCN1c1cc(-c2ccnn2C)c2ccnc(-c3ccn[nH]3)c2n1 (stereo not given) + Nc1ccc(C#CCN(C(=O)Cc2ncc(C(F)(F)F)cc2C(F)(F)F)c2ccc(F)cc2)nn1 | 843126-344-R-J1-PDC complex spheroid viability | 76.3 |
